Record form. Attribute: IC50. Fill in for each entry.
# targetDesc: CCR2 receptor (Homo sapiens, UniProt P41597)
# Sequence (P41597 whole entry): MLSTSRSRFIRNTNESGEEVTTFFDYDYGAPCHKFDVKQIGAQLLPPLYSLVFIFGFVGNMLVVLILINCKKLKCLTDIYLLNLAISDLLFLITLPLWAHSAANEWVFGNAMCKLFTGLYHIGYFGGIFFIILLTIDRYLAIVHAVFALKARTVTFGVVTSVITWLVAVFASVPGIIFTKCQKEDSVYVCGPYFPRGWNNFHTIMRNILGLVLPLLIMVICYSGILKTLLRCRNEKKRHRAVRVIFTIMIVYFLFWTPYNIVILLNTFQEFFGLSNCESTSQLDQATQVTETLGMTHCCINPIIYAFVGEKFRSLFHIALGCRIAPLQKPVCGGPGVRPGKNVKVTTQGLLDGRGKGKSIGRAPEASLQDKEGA
# assayProtocol: Calcium activity assay on FLIPR Tetra in HEK-Gqi5 cells stably expressing CCR2
Numbers only, in nM.

Some molecules with known IC50 results, for comparison:
# molecule, IC50 / nM
rows = [
    ("O=C(O)c1ccc(CSc2ccc(Cl)cc2NS(=O)(=O)c2ccc(Cl)c(C(F)(F)F)c2)cc1", 255),
    ("O=C(NCCN1CCCC1)c1cccc(CS(=O)(=O)c2ccc(Cl)cc2NS(=O)(=O)c2ccc(Cl)c(C(F)(F)F)c2)c1", 817),
    ("N#Cc1ccc(NS(=O)(=O)c2cc3ccccc3o2)c(S(=O)(=O)Cc2ccccc2)c1", 888),
    ("O=C(NCCN1CCCC1)c1cccc(C[S+]([O-])c2ccc(Cl)cc2NS(=O)(=O)c2ccc(Cl)c(C(F)(F)F)c2)c1 (centres unmarked)", 910),
    ("O=C(O)c1ccccc1CSc1ccc(Cl)cc1NS(=O)(=O)c1cc2ccccc2o1", 7),
    ("CC(=O)Nc1cccc(CSc2ccc(Cl)cc2NS(=O)(=O)c2cc3ccccc3o2)c1", 379),
    ("COC(=O)CC[S+]([O-])c1ccc(Cl)cc1NS(=O)(=O)c1ccc(Cl)cc1F (centres unmarked)", 98),
]

Moving on to another molecule below.
Task item: Entry under review: COC(=O)c1ccccc1CS(=O)(=O)c1ccc(Cl)cc1NS(=O)(=O)c1ccc(Cl)c(C(F)(F)F)c1 . Reported IC50?
Reply: 515
